Please go through the items and note down their pKd.
Biological target: T1, full length recombinant human 2N4R tau (human, UniProt P10636 1-758)
T1 construct: bought from rPeptide; pHrodo Red maleimide-labelled where it stands in uptake assays; also called tau1-441; full length tau
T1 sequence (P10636 other isoform, or with tags, fused parts or gaps limits assumed): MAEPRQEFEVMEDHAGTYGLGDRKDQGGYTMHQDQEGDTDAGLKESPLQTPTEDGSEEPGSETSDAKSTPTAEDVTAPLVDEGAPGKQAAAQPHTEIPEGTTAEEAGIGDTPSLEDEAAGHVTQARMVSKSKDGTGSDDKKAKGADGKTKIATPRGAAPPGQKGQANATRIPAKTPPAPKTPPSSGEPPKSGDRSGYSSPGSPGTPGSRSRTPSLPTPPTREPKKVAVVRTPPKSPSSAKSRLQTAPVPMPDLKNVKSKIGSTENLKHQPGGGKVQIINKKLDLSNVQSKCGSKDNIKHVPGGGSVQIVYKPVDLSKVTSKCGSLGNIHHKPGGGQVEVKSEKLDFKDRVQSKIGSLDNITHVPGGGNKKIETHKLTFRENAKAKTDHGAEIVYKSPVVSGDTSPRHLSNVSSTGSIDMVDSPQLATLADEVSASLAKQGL
Assay: SPR MCK, IgG on Protein A, tau in flow
Give bare numbers, as −log10 of the molar value.

Use these answered entries as a reference point.
{"Binder": "#44 VH3VK3 humanised hIgG1 (antibody, V domains shown, also called VH3Vκ3; Clone VH3VK3 (A)) VH: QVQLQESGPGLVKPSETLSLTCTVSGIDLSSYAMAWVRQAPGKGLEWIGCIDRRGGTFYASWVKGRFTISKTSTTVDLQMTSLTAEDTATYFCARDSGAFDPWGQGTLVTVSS VL: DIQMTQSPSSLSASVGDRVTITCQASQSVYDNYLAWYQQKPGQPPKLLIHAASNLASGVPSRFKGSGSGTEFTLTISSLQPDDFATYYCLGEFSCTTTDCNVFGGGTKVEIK", "Data value": 8.24}
{"Binder": "#44 VH0VK0 chimeric human IgG1 (antibody, V domains shown, rabbit VH and VK on human IgG1; also called VH0Vκ0; Clone #44 hIgG1) VH: QSVEESGGRLVTPGTPLTLTCTVSGIDLSSYAMAWVRQAPGKGLEWIGCIDRRGGTFYASWVKGRFTISKTSTTVDLKMTSLTTEDTATYFCARDSGAFDPWGPGTLVTVSS VL: QIVMTQTPSSVSAAVGGTVTIKCQASQSVYDNYLAWYQQKPGQPPKLLIHAASNLASRVPSRFKGSGSGTQFTLTISDVQCDDAATYYCLGEFSCTTTDCNVFGGGTEVVVK", "Data value": 8.49}
{"Binder": "#44 VH3VK4 humanised hIgG1 (antibody, V domains shown, also called VH3Vκ4; Clone VH3VK4 (B)) VH: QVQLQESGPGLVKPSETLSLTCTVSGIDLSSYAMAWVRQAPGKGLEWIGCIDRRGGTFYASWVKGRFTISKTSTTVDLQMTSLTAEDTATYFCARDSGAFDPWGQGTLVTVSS VL: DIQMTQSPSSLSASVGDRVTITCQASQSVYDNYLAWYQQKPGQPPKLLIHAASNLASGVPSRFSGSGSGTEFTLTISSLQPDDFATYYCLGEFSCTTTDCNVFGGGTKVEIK", "Data value": 8.18}

# batch size: 3; output pKd per entry
1. #44 VH4VK2 humanised hIgG1 (antibody, V domains shown, also called VH4Vκ2; Clone VH4VK2 (C)) VH: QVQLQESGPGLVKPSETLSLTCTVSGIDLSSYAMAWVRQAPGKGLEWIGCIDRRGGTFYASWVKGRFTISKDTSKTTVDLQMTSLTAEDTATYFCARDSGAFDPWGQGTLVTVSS VL: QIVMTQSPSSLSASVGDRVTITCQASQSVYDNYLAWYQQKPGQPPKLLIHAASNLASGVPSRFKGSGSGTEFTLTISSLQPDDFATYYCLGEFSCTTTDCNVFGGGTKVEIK
2. #44 VH4VK3 humanised hIgG1 (antibody, V domains shown, also called VH4Vκ3; Clone VH4VK3 (D)) VH: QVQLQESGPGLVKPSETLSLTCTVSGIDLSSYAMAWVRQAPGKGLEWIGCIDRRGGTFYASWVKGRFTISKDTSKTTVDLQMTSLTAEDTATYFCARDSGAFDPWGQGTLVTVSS VL: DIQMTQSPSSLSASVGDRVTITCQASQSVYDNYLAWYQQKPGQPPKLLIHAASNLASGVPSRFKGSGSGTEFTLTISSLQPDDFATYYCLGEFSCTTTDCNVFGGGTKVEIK
3. #44_VH4VK4 humanised hIgG1 (antibody, V domains shown, also called VH4Vκ4; pVH/pVL) VH: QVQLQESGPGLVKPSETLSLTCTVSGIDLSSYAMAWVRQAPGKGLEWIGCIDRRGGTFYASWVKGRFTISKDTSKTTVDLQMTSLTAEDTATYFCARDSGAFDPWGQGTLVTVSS VL: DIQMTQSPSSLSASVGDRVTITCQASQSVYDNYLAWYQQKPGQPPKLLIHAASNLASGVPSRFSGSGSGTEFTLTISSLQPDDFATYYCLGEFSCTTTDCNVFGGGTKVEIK

1. 8.36
2. 8.29
3. 8.23

Each recorded value in this set is attributed to patent US20250270301A1.
